- test target: human Branched Chain Amino Acid Aminotransferase cytosolic form (hBCATc) (Homo sapiens)
- Construct: made in house; host or cells: E. coli BL21(DE3)
- Sequence (P54687 whole entry): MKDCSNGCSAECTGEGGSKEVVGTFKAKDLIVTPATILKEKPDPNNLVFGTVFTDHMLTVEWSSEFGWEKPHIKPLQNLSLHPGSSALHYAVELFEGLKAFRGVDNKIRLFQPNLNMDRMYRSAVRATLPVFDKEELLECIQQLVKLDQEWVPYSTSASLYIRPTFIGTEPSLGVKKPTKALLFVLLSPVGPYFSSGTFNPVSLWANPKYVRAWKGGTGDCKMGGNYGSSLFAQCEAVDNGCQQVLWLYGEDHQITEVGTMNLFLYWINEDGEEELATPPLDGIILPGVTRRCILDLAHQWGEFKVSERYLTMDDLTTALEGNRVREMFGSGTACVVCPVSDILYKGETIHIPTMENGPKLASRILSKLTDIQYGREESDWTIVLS
- test description: In vitro coupled enzyme assay (glutamate dehydrogenase, NADH formation), human BCATc
- Format: biochemical
- study conditions: recombinant human BCATc, 37° C., 25 mM phosphate buffer pH 7.8; several values in a cell = repeat determinations; read-out: RhBCATc
Field: label. Allowed values: Yes (IC50 < 20 µM) or No (IC50 >= 20 µM).

Example entries begin here.
- molecule: "O=C(NNS(=O)(=O)c1ccc(F)c(F)c1)c1cc2cc(Cl)ccc2o1 [Example 41]"
  assigned category: "No"
- molecule: "Cc1cccc(S(=O)(=O)NNC(=O)c2cnc3ccccc3c2)c1 [Example 125]"
  assigned category: "Yes"
- molecule: "O=C(NNS(=O)(=O)c1ccccc1)c1nccc2ccccc12 [Example 152]"
  assigned category: "No"
- molecule: "O=C(NNS(=O)(=O)c1ccccc1)c1ccc2[nH]ccc2c1 [Example 153]"
  assigned category: "Yes"
- molecule: "COc1cccc(S(=O)(=O)NNC(=O)c2ccc3oc4ccccc4c3c2)c1 [Example 39]"
  assigned category: "Yes"
- molecule: "O=C(NNS(=O)(=O)c1ccccc1OC(F)(F)F)c1ccc2ncccc2c1 [Example 136]"
  assigned category: "No"
- molecule: "O=C(NNS(=O)(=O)c1ccccc1)c1cc2ccccc2o1 [Example 146]"
  assigned category: "Yes"
- molecule: "COc1ccc(Cl)cc1S(=O)(=O)NNC(=O)c1cc2cccc(OC)c2o1 [Example 106]"
  assigned category: "No"

Please look at the following molecule next.
Q: In the record for COc1c(C(=O)NNS(=O)(=O)c2ccccc2)oc2cc3ccccc3cc12 [Example 68] , is IC50 less than 20 µM?
A: Yes
